- Test system: 786-O
- Assay procedure: Euclidean distance of Cell Painting phenotypic profile (signed KS, 77 features) to DMSO centroid (dimensionless distance); 5 or 10 uM (library dependent); higher = stronger phenotypic change vs DMSO (phenoactivity)
- Reported conditions: 48 h
For each entry below, report its Euclidean distance value.
Numbers only.

Recorded results for 3 compounds are shown here.
COc1ccccc1OCC(O)CN1CCN(CC(=O)Nc2c(C)cccc2C)CC1 (centres undefined) :: 1.2
CNC(=O)CN(CCN(CCN(CC(=O)[O-])CC(=O)NC)CC(=O)[O-])CC(=O)[O-].O.[Gd+3] [Gadodiamide Hydrate] :: 1.58
CC[C@@H]1C(=O)N(C)c2cnc(Nc3ccc(C(=O)NC4CCN(C)CC4)cc3OC)nc2N1C1CCCC1 :: 3.46

Let us examine a further case.
What does the data say about its Euclidean distance? Entry: `Clc1ccc(Cn2c(CN3CCCC3)nc3ccccc32)cc1`
1.07

====

- Tested on: OVCAR4
- Assay procedure: Euclidean distance of Cell Painting phenotypic profile (signed KS, 77 features) to DMSO centroid (dimensionless distance); 5 or 10 uM (library dependent); higher = stronger phenotypic change vs DMSO (phenoactivity)
- Reported conditions: 48 h
Is Euclidean distance at least 2? Then 1. If not, 0.

CC(C)(C#N)c1ccc(N2C(=O)OCc3cnc4ccc(-c5cnc6ccccc6c5)cc4c32)cc1 :: 1
C=C1CC[C@@H]2[C@](C)(CO)[C@H](O)CC[C@@]2(C)[C@@H]1C/C=C1/C(=O)OC[C@H]1O [Andrographolide] :: 0
CCOC(=O)[N-]c1c[n+](N2CCOCC2)no1 [Molsidomine] :: 0

Please indicate if the recorded Euclidean distance for `COc1cc(N2CCC(N)CC2)ccc1Nc1ncc(Cl)c(-c2c[nH]c3ccccc23)n1` meets or exceeds 2.
1

One more compound: N#Cc1ccc(Oc2ccc3c(c2)COB3O)cc1 [Crisaborole (AN2728)]
0

====

- System: FB
- Assay procedure: Euclidean distance of Cell Painting phenotypic profile (signed KS, 77 features) to DMSO centroid (dimensionless distance); 5 or 10 uM (library dependent); higher = stronger phenotypic change vs DMSO (phenoactivity)
- Reported conditions: 48 h
Rule: Euclidean distance under 2 gives No, otherwise Yes.

Has O=C(Nc1ccc([N+](=O)[O-])cc1Cl)c1cc(Cl)ccc1O [Niclosamide] a recorded Euclidean distance greater than or equal to 2?
Yes

====

- Test system: DU145
- Assay procedure: Euclidean distance of Cell Painting phenotypic profile (signed KS, 77 features) to DMSO centroid (dimensionless distance); 5 or 10 uM (library dependent); higher = stronger phenotypic change vs DMSO (phenoactivity)
- Reported conditions: 48 h
Where a name gives a salt, the structure may show the parent alone.
Label Criterion met when Euclidean distance is at or above 1; anything below gets Criterion not met.

Is Euclidean distance at least 1? Consider CN(C)CCCN1c2ccccc2Sc2ccccc21 [Promazine hydrochloride]
Criterion met

Param item: Cn1nnc2c(C(N)=O)ncn2c1=O [Temozolomide]
Criterion met

Further, for N[C@@H](Cc1cc(I)c(Oc2cc(I)c(O)c(I)c2)c(I)c1)C(=O)O [L-Thyroxine] ?
Criterion met

Query CCCC1O[C@@H]2C[C@H]3[C@@H]4CCC5=CC(=O)C=C[C@]5(C)[C@H]4[C@@H](O)C[C@]3(C)[C@]2(C(=O)CO)O1 (stereo partly specified) [Budesonide] next
Criterion met

Same question for CCCc1nc(C(C)(C)O)c(C(=O)O)n1Cc1ccc(-c2ccccc2-c2nnn[nH]2)cc1 [Olmesartan] please.
Criterion met

Can you check COc1c(N2C[C@@H]3CCCN[C@@H]3C2)c(F)cc2c(=O)c(C(=O)O)cn(C3CC3)c12 [Moxifloxacin] next?
Criterion not met

Repeat for the following molecule: O=C(O)c1cn(-c2ccc(F)cc2)c2cc(N3CCNCC3)c(F)cc2c1=O [Sarafloxacin HCl]
Criterion met
